Biological target: CH0505_CON D7gp120/293i
Assay: ELISA

{"BINDER": "CH557 (antibody, V domains shown, also called CH235.12; CH557_4A/293i) VH: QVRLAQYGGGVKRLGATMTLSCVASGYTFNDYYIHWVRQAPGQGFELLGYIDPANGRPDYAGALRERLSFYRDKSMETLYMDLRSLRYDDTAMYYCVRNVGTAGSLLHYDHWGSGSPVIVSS VL: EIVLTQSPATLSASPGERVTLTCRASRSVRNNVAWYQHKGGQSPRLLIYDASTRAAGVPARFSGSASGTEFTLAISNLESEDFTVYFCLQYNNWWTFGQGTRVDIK", "LogAUC": 8.39}
{"BINDER": "CH556 (antibody, V domains shown, also called CH235.11) VH: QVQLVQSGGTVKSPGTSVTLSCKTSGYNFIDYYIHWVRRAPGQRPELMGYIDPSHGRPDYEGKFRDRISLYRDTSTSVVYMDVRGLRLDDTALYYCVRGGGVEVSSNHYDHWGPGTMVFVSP VL: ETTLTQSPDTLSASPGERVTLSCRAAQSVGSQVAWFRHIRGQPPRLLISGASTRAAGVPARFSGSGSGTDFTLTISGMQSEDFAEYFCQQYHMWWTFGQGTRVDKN", "LogAUC": 0.26}
{"BINDER": "CH491 (antibody, V domains shown, also called CH235.7; DH491) VH: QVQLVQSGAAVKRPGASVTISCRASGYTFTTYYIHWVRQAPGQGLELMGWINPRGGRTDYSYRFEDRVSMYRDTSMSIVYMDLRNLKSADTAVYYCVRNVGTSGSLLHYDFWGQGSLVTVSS VL: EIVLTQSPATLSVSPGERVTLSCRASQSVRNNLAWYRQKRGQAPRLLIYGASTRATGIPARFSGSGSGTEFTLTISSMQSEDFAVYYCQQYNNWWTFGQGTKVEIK", "LogAUC": 9.64}
{"BINDER": "CH235 (antibody, V domains shown, also called CH235_4A) VH: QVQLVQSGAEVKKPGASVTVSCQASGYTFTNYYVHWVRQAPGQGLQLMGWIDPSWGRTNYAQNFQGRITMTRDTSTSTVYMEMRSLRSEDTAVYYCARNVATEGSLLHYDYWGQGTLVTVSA VL: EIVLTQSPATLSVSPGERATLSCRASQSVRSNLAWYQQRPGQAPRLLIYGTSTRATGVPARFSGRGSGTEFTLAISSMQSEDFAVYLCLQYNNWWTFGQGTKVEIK", "LogAUC": 9.73}
